Tested target: Gh-TDH wild-type (Grimontia hollisae, UniProt A0A377HK12 25-189)
Test name: BLI; 50 mM EDTA; BLI: PBS pH 7.4, 50 mM EDTA, 1 mg/mL BSA, 1000 rpm, temperature not stated; crystals: protein:ssDNA 1:1.3, hanging drop, 20 C
Conditions: protein: recombinant; chain copies: 4; label: 5'-biotin
pKd: −log10 of the molar value.
Outcome measure: pKd

Query string: Reported pKd for AAAAAAAAAAAA (ssDNA) [poly(dA12)] : what is it?
Result string: ~5.51
